The measurements presented in this section are drawn from patent US20200407445A1.

Target: T1, human TIGIT expressed on cells (human, UniProt Q495A1 22-244)
T1 construct: whole, on cells; on Jurkat E6.1 cells transduced with human TIGIT, on Promega TIGIT Effector cells or on human primary T cells; the assay field says which; also called hTIGIT; Jurkat-hTIGIT
T1 sequence (looked up): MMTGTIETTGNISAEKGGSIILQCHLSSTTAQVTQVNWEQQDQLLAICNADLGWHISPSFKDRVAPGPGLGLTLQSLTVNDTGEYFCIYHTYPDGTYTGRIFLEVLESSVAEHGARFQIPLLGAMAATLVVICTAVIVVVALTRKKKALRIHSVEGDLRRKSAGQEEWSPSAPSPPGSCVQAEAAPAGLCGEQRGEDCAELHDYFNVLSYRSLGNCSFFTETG
Experiment: flow cytometry, primary CD8+ T cells of cancer patients' PBMC, MFI
Please go through the items and note down their EC50.
Numbers only, in pM.

31C6 (MEB125.31C6.A1.205 VH4/VL1; comparative anti-TIGIT antibody, human IgG1) (antibody, V domains shown, from WO2016/028656; made in HEK cells as human IgG1; also called 3106 (as the text prints it)) VH: EVQLVQSGAEVKKPGASVKVSCKASGYTFSSYVMHWVRQAPGQGLEWIGYIDPYNDGAKYAQKFQGRVTLTSDKSTSTVYMELSSLRSEDTAVYYCARGGPYGWYFDVWGQGTTVTVSS VL: DIQMTQSPSSLSASVGDRVTITCRASEHIYSYLSWYQQKPGKAPKLLIYNAKTLAEGVPSRFSGSGSGTDFTLTISSLQPEDFATYYCQHHFGSPLTFGQGTRLEIK	180
TIG1 (comparative anti-TIGIT antibody, human IgG1) (antibody, V domains shown, from WO2017/152088; made in HEK cells as human IgG1) VH: DVQLVESGGGLVQPGGSRKLSCAASGFTFSNFGMHWVRQAPEKGLEWVAFISSGSSSIYYADTVKGRFTISRDNPKNTLFLQMTSLRSEDTAMYYCARMRLDYYAMDYWGQGTSVTVSS VL: DVQITQSPSYLAASPGETITINCRASKSISKYLAWYQEKPGKTNKLLIYSGSTLQSGIPSRFSGSGSGTDFTLTISSLEPEDFAMYYCQQHNEYPWTFGGGTKLEIK	330
22G2 (comparative anti-TIGIT antibody, human IgG1) (antibody, V domains shown, from WO2016/106302; made in HEK cells as human IgG1) VH: QVHLQESGPGLVKPSETLSLTCTVSGGSVSSGIYYWSWIRQPPGKGLEWIGYIYYSGSTNYNPSLKSRVTISVDTSKNQFSLKLSSVTAADTAVYYCARDYYVSGNYYNVDYYFFGVDVWGQGTTVTVSS VL: EIVLTQSPATLSLSPGERATLSCRASQSVSSYLAWYQQKPGQAPRLLIYDASNRATGIPARFSGSGSGTDFTLTISSLEPEDFAVYYCQQRSNWPPLFTFGPGTKVDIK	370

Here's the next entry for you.
Exercise: # lookup: EC50 of 313M32 (comparative anti-TIGIT antibody, human IgG1) (antibody, V domains shown, from WO2016/191643; made in HEK cells as human IgG1; the VL as printed ends at ...TFG (FR4 not complete); also called 313M2) VH: QVQLQESGPGLVKPSETLSLTCAVSGYSITSDYAWNWIRQPPGKGLEWIGYISYSGSTSYNPSLRSRVTISRDTSKNQFFLKLSSVTAADTAVYYCARRQVGLGFAYWGQGTLVTVSS VL: DIQMTQSPSSLSASVGDRVTITCKASQDVSTAVAWYQQKPGKAPKLLIYSASYRYTGVPSRFSGSGSGTDFTFTISSLQPEDIATYYCQQHYSTPWTFG
Solution: 1000
